The entries below are paired with their reported IC50.
Biological target: thromboxane synthetase (Oryctolagus cuniculus)
Construct: carried out in vitro on washed rabbit platelets; endogenous in cells; host or cells: washed rabbit platelets
Sequence (G1TAZ9 1-530): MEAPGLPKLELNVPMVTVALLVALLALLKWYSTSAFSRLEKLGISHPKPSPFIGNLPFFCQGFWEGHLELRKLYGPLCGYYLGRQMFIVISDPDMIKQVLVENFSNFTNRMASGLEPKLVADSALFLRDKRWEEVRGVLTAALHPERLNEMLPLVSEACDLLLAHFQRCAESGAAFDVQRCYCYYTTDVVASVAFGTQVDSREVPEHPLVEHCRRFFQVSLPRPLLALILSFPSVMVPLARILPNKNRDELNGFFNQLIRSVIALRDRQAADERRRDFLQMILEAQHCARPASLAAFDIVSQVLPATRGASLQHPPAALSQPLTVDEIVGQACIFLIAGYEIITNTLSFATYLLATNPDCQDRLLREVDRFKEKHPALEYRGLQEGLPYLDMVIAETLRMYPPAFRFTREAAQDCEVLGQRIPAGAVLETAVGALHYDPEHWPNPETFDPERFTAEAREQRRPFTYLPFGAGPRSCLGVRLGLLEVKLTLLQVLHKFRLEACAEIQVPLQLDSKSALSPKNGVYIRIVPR
Experiment: inhibition of TXB2 synthesis (thromboxane synthetase) in washed rabbit platelets
Assay type: cell-based
Settings: washed rabbit platelets, in vitro; 50% inhibition of TXB2 synthesis; read-out: Inh. TX B2 CE50%
Experimental endpoint: IC50 (µM)

• CCC(Cn1ccnc1-c1ccccc1)(c1ccccc1)N(C)C (centres unmarked) = 50
• CCCCCC(CN(C)C)(c1ccccc1)n1ccnc1 (centres unmarked) = 2.15
• CN(C)C(C)(COc1ccc(Cl)cc1)Cn1ccnc1 (centres unmarked) = 13.2
• CCC(Cn1ccnc1)(c1ccccc1)N(C)C (centres unmarked) [Ex. 1A] = 3.7
• CCC(CN(C)C)(c1ccccc1)n1ccnc1 (centres unmarked) = 17.4
• CN(C)C(C)(Cn1ccnc1)c1ccc(-c2ccccc2)cc1 (centres unmarked) = 11.2
• COc1ccc(CC(C)(Cn2ccnc2)N(C)C)cc1 (centres unmarked) = 4.5
• CN(C)CC(C)(C)n1ccnc1 = 50
• CCCCCC(Cn1ccnc1)(c1ccccc1)N(C)C (centres unmarked) = 0.56
• CCC(Cn1ccnc1)(c1ccccc1)N(C)C (single isomer, unassigned) [EX. 12] = 11.3

====

assay: acute toxicity (LD50, mice); conditions: mouse, in vivo, ip, 14 days, read-out: LD50 % i.p. route
Experimental endpoint: LD50 at 336 h (mg/kg)

* CCC(CN(C)C)(c1ccccc1)n1ccnc1 (centres unmarked) | 145
* CCC(CN(C)C)(c1ccccc1)n1ccnc1C (centres unmarked) | 137
* CCC(Cn1ccnc1)(c1ccccc1)N(C)C (centres unmarked) | 326
* CN(C)C(C)(COc1ccc(Cl)cc1)Cn1ccnc1 (centres unmarked) | 32
* CCCCCC(CN(C)C)(c1ccccc1)n1ccnc1 (centres unmarked) | 346
* CCc1nc(C)cn1C(CC)(CN(C)C)c1ccccc1 (centres unmarked) | 47
* CCC(Cn1ccnc1C)(c1ccccc1)N(C)C (centres unmarked) | 157
* COc1ccc(CC(C)(Cn2ccnc2)N(C)C)cc1 (centres unmarked) | 231

====

The entries below are paired with their reported ED50.
system: gastric mucosa; test: cytoprotection test, gastric ulceration caused by absolute ethanol; type: in vivo, Sprague Dawley rats; details: sc; rat; s.c. route, 30 minutes before absolute ethanol; read-out: ED50% s.c. route
Experimental endpoint: ED50 (mg/kg)

• CCC(Cc1ccccc1)(Cn1ccnc1)N(C)C (centres unmarked) [Ex. 7A] = 26.6
• CCC(Cn1ccnc1)(c1ccccc1)N(C)C (centres unmarked) [Ex. 1A] = 11
• CCC(CN(C)C)(c1ccccc1)n1ccnc1 (centres unmarked) [Ex. 1B] = 8.1
• CCc1nc(C)cn1C(CC)(CN(C)C)c1ccccc1 (centres unmarked) [Ex. 4B] = 4
• CN(C)C(C)(COc1ccc(Cl)cc1)Cn1ccnc1 (centres unmarked) [EX. 10] = 10
